Would you mind telling me the reported viability at 28.5 h, 10 µM of each entry?
test: in vitro; conditions: human, hela cells, % viability
Dear colleague, please return just the value in %, with no unit written.

Form field: reported viability at 28.5 h, 10 µM of CN(Cc1nc(-c2ccccc2)no1)C(=O)C1CC2(CCNCC2)CN1 (stereo not shown)
88.7

Form field: reported viability at 28.5 h, 10 µM of CC1CCN(Cc2ccc(-c3nnn(CC(=O)NCc4ccc(Cl)cc4Cl)n3)cc2)CC1 [CBK144180C]
96.5

Form field: reported viability at 28.5 h, 10 µM of Cc1[nH]c(=O)c(C(=O)N(C)C(C)c2ccc(Cl)cc2)cc1-c1ccc(O)cc1 (stereo not shown)
98.8

Form field: reported viability at 28.5 h, 10 µM of Cc1ccc(SCCC(=O)NC(CC(=O)O)C(=O)O)cc1 (stereo not shown)
103

Form field: reported viability at 28.5 h, 10 µM of `COc1ccccc1/C=N/NC(=O)C(=O)NCc1ccccn1`
93.7

Form field: reported viability at 28.5 h, 10 µM of `CCCc1cc(O)n(-c2nc3ccccc3[nH]2)n1`
82.7

Form field: reported viability at 28.5 h, 10 µM of `CC(=O)CCC(=O)N1CCN(C(=O)c2ccc(-c3ccc(S(C)(=O)=O)cc3)cn2)CC1`
105

Form field: reported viability at 28.5 h, 10 µM of Cc1nc(-c2ccccc2)sc1C(=O)C1=C(O)C(=O)N(CCCN2CCOCC2)C1c1cccs1 (stereo not shown)
91.4

Form field: reported viability at 28.5 h, 10 µM of CC(=O)NC(c1ccccn1)C1CCCN(C(=O)C2CC2)C1 (stereo not shown)
100

Form field: reported viability at 28.5 h, 10 µM of Cc1ccc(N2C(=O)c3[nH]nc(C)c3C2c2ccc(O)cc2)cc1 (stereo not shown)
94.7

Form field: reported viability at 28.5 h, 10 µM of `O=C1/C(=N\Nc2ccc([N+](=O)[O-])cc2[N+](=O)[O-])c2ccccc2N1CN1CCCCC1`
94.4

Form field: reported viability at 28.5 h, 10 µM of `O=[N+]([O-])c1ccc(NCCNS(=O)(=O)c2ccccc2)cc1`
96.1

Form field: reported viability at 28.5 h, 10 µM of `O=C(c1cccc([N+](=O)[O-])c1)c1ccc2c(c1)C(=O)N(Cc1cccnc1)C2=O`
80.1

====

Would you mind telling me the reported viability at 28.5 h, 10 µM of each entry?
assay: in vitro; details: human, hela cells, % viability
Dear colleague, please return just the value in %, with no unit written.

Form field: reported viability at 28.5 h, 10 µM of OC(CNc1cccc2ccccc12)Cn1c2ccc(Br)cc2c2cc(Br)ccc21 (stereo not shown)
99.8

Form field: reported viability at 28.5 h, 10 µM of `O=C1Nc2ccc(-c3ccsc3)cc2C(=O)N2CC[C@H](NC(=O)N3CCOCC3)[C@@H]12`
109

Form field: reported viability at 28.5 h, 10 µM of `CC1=NN(c2ccc(S(N)(=O)=O)cc2)C(=O)/C1=C\c1ccc(-c2ccc(S(N)(=O)=O)cc2)o1`
97.4

Form field: reported viability at 28.5 h, 10 µM of `Cc1c(C)n2c(SCC(=O)N3CCCC3)nnc2[nH]c1=O`
99.4

====

system: HeLa; details: bulk resorufin, single well, 28.5 h, 10 µM, Bulk resorufin fluorescence
Would you mind telling me the reported % viability of each entry?
Dear colleague, please return just the value in %, with no unit written.

Find % viability (HeLa) for the entry `CCN(CC)c1ccc(NC(=O)N2CCN(Cc3ccccc3)CC2)cc1`
90.4

Find % viability (HeLa) for the entry COc1ccc([C@@]23CC[C@@H](CNS(=O)(=O)c4cccc(Cl)c4)C[C@@H]2N(C)CC3)cc1OC [CBK042202T]
91.5

Find % viability (HeLa) for the entry `CCS(=O)(=O)N1CC=C[C@H]1C(=O)NCCc1ccccc1`
89.7

Find % viability (HeLa) for the entry `CC(C)[C@H](Cn1nc(C2CC2)ccc1=O)NC(=O)C1CCC1`
91.4

Find % viability (HeLa) for the entry `CC(=O)NC(NS(=O)(=O)c1ccccc1)(C(F)(F)F)C(F)(F)F`
92.5

====

experiment: in vitro; details: human, hela cells, % viability
Would you mind telling me the reported viability at 28.5 h, 10 µM of each entry?
Dear colleague, please return just the value in %, with no unit written.

Form field: reported viability at 28.5 h, 10 µM of `Cc1cc(C)c2nc(-n3cncn3)c(C)cc2c1`
88.9

Form field: reported viability at 28.5 h, 10 µM of O=S(=O)(NCc1cccc(Cl)c1)c1csc2ccnc(N3CCNCC3)c12 [CBK045595C]
88.6

Form field: reported viability at 28.5 h, 10 µM of `CCOc1ccccc1NC(=O)NC(=O)C1CCN(CCCc2ccc3c(c2)OCO3)CC1`
88.6

Form field: reported viability at 28.5 h, 10 µM of `CCc1nc2ccc(C(=O)NCCNC(C)=O)cn2c1N(C)Cc1ccc(NC(C)=O)cc1`
87.4

Form field: reported viability at 28.5 h, 10 µM of `COc1cc2c(cc1OC)CN(Cc1ccccc1[N+](=O)[O-])CC2`
89.8

Form field: reported viability at 28.5 h, 10 µM of `O=C(CSc1ccc(Cl)cc1)Nc1cccc2nsnc12`
90.8

Form field: reported viability at 28.5 h, 10 µM of `O=C(NCc1ccc2c(c1)OCO2)c1ccc(S(=O)(=O)N2CCCC2)cc1`
108

Form field: reported viability at 28.5 h, 10 µM of `CCn1cc(C(=O)O)c(=O)c2cnc(N3CCN(C(=S)NC(=O)C4c5ccccc5Oc5ccccc54)CC3)nc21`
91.6

Form field: reported viability at 28.5 h, 10 µM of CC(Oc1nccnc1OCc1ccc(Cl)c(Cl)c1)c1ccncc1 (stereo not shown)
84.1

Form field: reported viability at 28.5 h, 10 µM of O=C(COc1ccc(F)cc1)N1CCCC1c1cccc(Cc2ccc(F)cc2)n1 (stereo not shown)
99.3

====

assay: in vitro; conditions: human, hela cells, % viability
Doc: threshold 90% (exclusive). Items with viability at 28.5 h, 10 µM beneath it return 1.0; others return 0.0.

For N[C@H]1C[C@H](c2nnc(Cn3ncc(N4CCCC4)cc3=O)n2C2CC2)C1 [CBK307039] , is the recorded viability at 28.5 h, 10 µM below the cut-off of 90%?
0.0

For COc1ccc(-n2c(=O)[nH]cc(C(=O)Nc3cc(C)ccc3OC)c2=O)cc1 [CBK287548] , is the recorded viability at 28.5 h, 10 µM below the cut-off of 90%?
0.0

For Cn1c2c(c(=O)n(C)c1=O)[C@H]1[C@H](O)[C@H](O)C[C@H]1[C@@H](C(O)c1ccccc1)N2 (stereo partly drawn) [CBK303236] , is the recorded viability at 28.5 h, 10 µM below the cut-off of 90%?
0.0

For Fc1cc(Br)c(CNCc2cocn2)c(N2CCCCC2)c1F [CBK304792] , is the recorded viability at 28.5 h, 10 µM below the cut-off of 90%?
1.0

For Cc1cc([N+](=O)[O-])ccc1NC(=O)Cn1cnc2c1c(=O)n(C)c(=O)n2C [CBK263162] , is the recorded viability at 28.5 h, 10 µM below the cut-off of 90%?
0.0

For O=C(c1ccc2ncccc2c1)N1CCc2ccccc21 [CBK200403] , is the recorded viability at 28.5 h, 10 µM below the cut-off of 90%?
1.0

For Cc1noc(C)c1NC(=O)c1nccc2ccccc12 [CBK200310] , is the recorded viability at 28.5 h, 10 µM below the cut-off of 90%?
0.0

For CS(=O)(=O)N1CCC(C(=O)NNC(=S)Nc2cccc3ccccc23)CC1 [CBK266811] , is the recorded viability at 28.5 h, 10 µM below the cut-off of 90%?
1.0

For CCc1c(C)nc2c(-c3ccc(OC)c(OC)c3)cnn2c1O [CBK287962] , is the recorded viability at 28.5 h, 10 µM below the cut-off of 90%?
1.0

For CC1CNCCC1n1nc(-c2cccs2)ccc1=O (stereo not drawn) [CBK284221] , is the recorded viability at 28.5 h, 10 µM below the cut-off of 90%?
1.0

For NC(=O)C1(N2CCCCC2)CCN(C(=O)CCCC(=O)O)CC1 [CBK286575] , is the recorded viability at 28.5 h, 10 µM below the cut-off of 90%?
1.0

For Cc1ccc2[nH]cc(CCN3CCC(C(=O)NC(=O)Nc4ccccc4F)CC3)c2c1 [CBK034974] , is the recorded viability at 28.5 h, 10 µM below the cut-off of 90%?
0.0

For Fc1ccc([C@@H]2COC[C@H]2NCc2ccsc2)cc1 [CBK282598] , is the recorded viability at 28.5 h, 10 µM below the cut-off of 90%?
0.0

For O=C(O)CCC(=O)Nc1cc(C(F)(F)F)ccc1N1CCCC1 [CBK057434] , is the recorded viability at 28.5 h, 10 µM below the cut-off of 90%?
0.0

For Cc1ccc(Cc2cnc(NC(=O)N3CCC(O)C(F)(F)C3)s2)cc1C (stereo not drawn) [CBK304120] , is the recorded viability at 28.5 h, 10 µM below the cut-off of 90%?
0.0

For c1cc(COc2ccc(N3CCNCC3)nn2)co1 [CBK022562] , is the recorded viability at 28.5 h, 10 µM below the cut-off of 90%?
0.0

For O=C(Cn1ccnc1)NC(Cc1cccs1)c1nccs1 (stereo not drawn) [CBK285092] , is the recorded viability at 28.5 h, 10 µM below the cut-off of 90%?
0.0
